Sourced from patent US11174268B2

- Tested System: NaV1.6 (Homo sapiens (Human))
- Assay Text: Sodium Influx Assay (Flux), NaV1.6;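 note: Tetracycline-induced cells, compounds applied for one hour at room temperature with modulators holding channels open, IC50 from percent inhibition of sodium influx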
- Type: cell-based
- Run Parameters: Trex HEK293 cells, ANG2 dye, inactivated state
pIC50: −log10 of the molar value.
Give Satisfied when the value for pIC50 is at least 6. Give Not satisfied when it is less.

// below: answered compounds
Compound | Tested System | Answer Label
O=S(=O)(Nc1nccs1)c1cc(Cl)c(NC(CC(F)(F)F)c2ccccc2)cc1F (stereo not shown) [Example 41] | NaV1.6 (Homo sapiens (Human)) | Satisfied
Cc1cc(N[C@@H](C)c2ccccc2F)c(Cl)cc1S(=O)(=O)Nc1nccs1 [Example 269] | NaV1.6 (Homo sapiens (Human)) | Satisfied

Query :: Has C[C@H](Nc1c(Cl)cc(S(=O)(=O)Nc2nccs2)cc1Cl)c1ccccc1F [Example 21] a recorded pIC50 greater than or equal to 6?
Result :: Not satisfied

Query :: Item O=S(=O)(Nc1cscn1)c1cc(Cl)c(NC2(c3ccccc3)CCC2)cc1F [Example 18] with pIC50 of 6 or above?
Result :: Not satisfied

###

- Tested System: NaV1.5 (Homo sapiens (Human), UniProt Q14524)
- Sequence (Q14524 other isoform, or with tags, fused parts or gaps): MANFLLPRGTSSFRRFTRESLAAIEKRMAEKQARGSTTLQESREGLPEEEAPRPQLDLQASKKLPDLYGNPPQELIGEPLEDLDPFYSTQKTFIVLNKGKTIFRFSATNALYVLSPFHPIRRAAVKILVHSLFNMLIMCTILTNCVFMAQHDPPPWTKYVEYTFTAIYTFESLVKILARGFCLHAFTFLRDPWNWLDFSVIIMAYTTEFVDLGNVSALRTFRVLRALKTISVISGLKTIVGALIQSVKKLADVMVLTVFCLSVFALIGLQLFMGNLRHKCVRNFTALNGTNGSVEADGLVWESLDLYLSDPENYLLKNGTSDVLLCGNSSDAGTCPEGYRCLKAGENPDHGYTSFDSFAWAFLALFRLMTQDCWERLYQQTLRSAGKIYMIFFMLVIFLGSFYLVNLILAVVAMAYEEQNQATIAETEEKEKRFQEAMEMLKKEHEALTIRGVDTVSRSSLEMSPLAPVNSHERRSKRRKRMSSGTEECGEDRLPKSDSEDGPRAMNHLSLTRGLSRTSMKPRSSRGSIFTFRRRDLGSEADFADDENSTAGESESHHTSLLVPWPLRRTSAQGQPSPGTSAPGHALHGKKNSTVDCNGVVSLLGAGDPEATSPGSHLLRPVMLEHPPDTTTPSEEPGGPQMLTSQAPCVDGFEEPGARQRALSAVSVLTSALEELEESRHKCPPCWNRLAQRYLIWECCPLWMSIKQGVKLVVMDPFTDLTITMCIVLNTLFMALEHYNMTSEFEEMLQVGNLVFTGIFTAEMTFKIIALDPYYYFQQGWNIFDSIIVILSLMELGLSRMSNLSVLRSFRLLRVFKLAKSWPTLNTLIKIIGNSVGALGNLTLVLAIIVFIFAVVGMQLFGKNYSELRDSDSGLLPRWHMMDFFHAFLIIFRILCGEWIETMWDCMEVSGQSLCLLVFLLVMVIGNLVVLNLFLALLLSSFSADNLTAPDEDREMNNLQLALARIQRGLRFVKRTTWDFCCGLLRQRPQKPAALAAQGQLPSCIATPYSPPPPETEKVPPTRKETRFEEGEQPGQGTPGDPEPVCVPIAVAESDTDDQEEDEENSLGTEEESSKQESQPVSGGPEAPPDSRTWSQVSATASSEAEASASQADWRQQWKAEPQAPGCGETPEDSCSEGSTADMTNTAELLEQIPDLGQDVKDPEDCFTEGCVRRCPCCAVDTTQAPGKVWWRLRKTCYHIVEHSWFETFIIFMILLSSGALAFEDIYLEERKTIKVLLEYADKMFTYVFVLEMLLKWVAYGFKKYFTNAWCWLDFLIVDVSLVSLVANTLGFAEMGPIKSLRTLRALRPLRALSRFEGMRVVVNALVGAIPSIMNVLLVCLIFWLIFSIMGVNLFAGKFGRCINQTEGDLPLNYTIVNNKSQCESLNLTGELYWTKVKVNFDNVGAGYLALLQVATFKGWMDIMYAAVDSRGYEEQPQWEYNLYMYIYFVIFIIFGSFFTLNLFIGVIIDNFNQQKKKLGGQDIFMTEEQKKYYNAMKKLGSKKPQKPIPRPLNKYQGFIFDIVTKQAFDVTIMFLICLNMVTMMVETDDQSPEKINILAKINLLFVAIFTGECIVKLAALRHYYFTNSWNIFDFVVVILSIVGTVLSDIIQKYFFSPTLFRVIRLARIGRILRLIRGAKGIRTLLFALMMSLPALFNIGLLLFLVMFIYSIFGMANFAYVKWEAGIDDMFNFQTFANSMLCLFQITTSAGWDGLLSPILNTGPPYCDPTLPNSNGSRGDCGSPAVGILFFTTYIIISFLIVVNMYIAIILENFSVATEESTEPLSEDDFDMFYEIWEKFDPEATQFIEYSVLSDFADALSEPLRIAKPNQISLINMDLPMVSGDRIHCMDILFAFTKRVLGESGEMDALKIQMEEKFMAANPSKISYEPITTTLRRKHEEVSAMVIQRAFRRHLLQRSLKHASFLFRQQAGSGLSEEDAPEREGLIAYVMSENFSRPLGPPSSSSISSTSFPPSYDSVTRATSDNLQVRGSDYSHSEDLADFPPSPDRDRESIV
- Assay Text: Sodium Influx Assay (Flux), NaV1.5
Structures can show the parent of a compound that is named as a salt.
IC50 values for the compounds below.
Kindly answer with a numeric value in µM, unit omitted.

Reference set, count: 2
Compound | Tested System | IC50 [µM]
C[C@H](Nc1cc(F)c(S(=O)(=O)Nc2cscn2)cc1Cl)c1cc(F)cc(F)c1 [Example 223] | NaV1.5 (Homo sapiens (Human), UniProt Q14524) | 12.2
O=S(=O)(Nc1cscn1)c1c(F)cc(NCc2c(F)cccc2CN2CCC3(CCC3)C2)cc1F [Example 159, formate] | NaV1.5 (Homo sapiens (Human), UniProt Q14524) | 11.8

From here, focus on the item given below.
Query :: Which IC50 is listed for CC[C@H](Nc1cc(F)c(S(=O)(=O)Nc2nccs2)cc1C)c1ccccc1 [Example 126] ?
Result :: 11.4

###

- Tested System: NaV1.1 (Homo sapiens (Human), UniProt P35498)
- Assay Text: Sodium Influx Assay (Flux), NaV1.1;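 note: channels co-expressed with human β1 subunit and held open by modulators, cells exposed to compounds for one hour at room temperature, IC50 from percent inhibition of influx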
- Format: cell-based
- Run Parameters: Trex HEK293 cells, ANG2 dye, inactivated state
Listing: IC50 of selected compounds
Write down the value, and be sure its unit follows.

Please review the following examples before continuing.
Compound | Tested System | Metric Name | Assay Value
O=S(=O)(Nc1ccncn1)c1cc(Cl)c(NC2(c3ccccc3F)CC2)cc1F [Example 242] | NaV1.1 (Homo sapiens (Human), UniProt P35498) | IC50 | 30 µM
CCC(Nc1ccc(S(=O)(=O)Nc2ncns2)cc1Cl)c1ccccc1 (stereo not drawn) [Example 139] | NaV1.1 (Homo sapiens (Human), UniProt P35498) | IC50 | 1.29 µM

From here, focus on the item given below.
Query :: Any idea what IC50 was measured for C[C@H](Oc1cc(F)c(S(=O)(=O)Nc2nccs2)cc1Cl)c1ccccc1 [Example 115] ?
Result :: 17.5 µM

###

- Tested System: NaV1.1 (Homo sapiens (Human))
- Assay Text: Sodium Influx Assay (Flux), NaV1.1
- Format: cell-based
- Run Parameters: Trex HEK293 cells, ANG2 dye, inactivated state
Counter-ions that a name gives are not always drawn.
# pIC50 per record follows
Field pIC50 (float): negative decimal logarithm of the concentration in molar.

Worked set:
Compound | pIC50
O=S(=O)(Nc1cccc(F)n1)c1c(F)cc(NCc2c(F)cccc2CN2CCC2)cc1F [Example 322, formate] | 5.11
O=S(=O)(Nc1cscn1)c1c(F)cc(NCc2c(F)cccc2CN2CC(F)C2)cc1F [Example 194, formate] | 5.07
O=S(=O)(Nc1cscn1)c1cc(Cl)c(NCc2ccc(F)cc2CN2CCC2)cc1F | 5.10

Here is the next item to consider.
Query :: Return pIC50 measured with NaV1.1 (Homo sapiens (Human)) given this compound: C[C@H](Nc1cc(F)c(S(=O)(=O)Nc2nccs2)cc1Cl)c1ccc2ccccc2c1
Result :: 5.03
